tested.on: T1, human IL-6 (human, UniProt P05231 30-212)
T1 construct: IL-6 flowed over captured antibodies
assay.protocol: SPR Biacore, supernatant Ab on Protein A chip, 37 C
API: label(entry) gives Met if the entry's Kd is strictly smaller than 1 nM; on equality or larger values it gives Not met.

Please indicate whether the reported Kd of anti-IL-6 antibody, heavy chain T63R, G66D / light chain M32L, M50D, N52S, M88Q (antibody, IgG1, V domains shown, Full IgG1 (Expi293); VL = variant III) VH: EVQLVESGGGLVQPGGSLRLSCAASGFTFSPFAMSWVRQAPGKGLEWVAKISPGGSWTYYSDRVTDRFTFSLDTSKSTAYLQMNSLRAEDTAVYYCARQLWGYYALDIWGQGTLVTVSS VL: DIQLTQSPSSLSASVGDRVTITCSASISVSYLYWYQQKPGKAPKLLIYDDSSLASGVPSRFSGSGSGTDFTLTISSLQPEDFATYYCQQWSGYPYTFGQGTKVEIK is strictly below 1 nM. Met
